Origin of the recorded values: patent US20220332835A1

Target: T1, pepN48 (peptide of the 48 N-terminal extracellular amino acids of human CXCR2) (human, biotin labeled on its N-terminus (panning, ELISA, SPR))
T1 construct: Synthetic; also called N-terminus of CXCR2
T1 peptide: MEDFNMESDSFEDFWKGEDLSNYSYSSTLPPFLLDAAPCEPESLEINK
Test: SPR, Biacore T200; biotinylated pepN48 on SA chip;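 note: antibodies flowed in HBS-EP+ running buffer over the immobilized antigen at 0.5 to 10 nM, kinetic traces fitted to a protein-protein interaction model to derive constants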
ENDPOINT: kon (M⁻¹ s⁻¹)
Form entry: value (M⁻¹ s⁻¹) — number only.

BINDER	EXPERIMENTAL VALUE
abN48-6 (antibody, V domains shown, format as tested not clearly stated) VH: QVQLVQSGAEVKKPGSSVKVSCKASGGTLSSYAISWVRQAPGQGPEWMGWINPNSGGTNYAQKFQGRVTMTRDTSISTAYMELSRLRPDDTAVYYCASGYCSPSGCYVYWGQGTLVTVSS VL: QAVLTQPSSLSASPGASVSLTCTLRSGINVGAYRIYWYQQKPGSPPQFLLRYKSDSDKQQGSGVPSRFSGSRDASANAGILLISGLRSEDEADYYCAIWHSSAWVFGGGTQLTVLG	85000

The binder listed as abN48-4 (antibody, V domains shown, format as tested not clearly stated) VH: QVQLVQSGAEVKKPGSSVKVSCKASGGTLSSYAISWVRQAPGQGPEWMGWINPNSGGTNYAQKFQGRVTMTRDTSISTAYMELSRLRPDDTAVYYCASGYCNRTRCYDHWGQGTLVTVSS VL: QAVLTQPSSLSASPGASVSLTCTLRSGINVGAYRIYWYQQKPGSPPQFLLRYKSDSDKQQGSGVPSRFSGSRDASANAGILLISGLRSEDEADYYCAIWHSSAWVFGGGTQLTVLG shows kon equal to 520000

The binder listed as abN48-IgG1 (antibody, V domains shown, also called full-length abN48) VH: QVQLVQSGAEVKKPGSSVKVSCKASGGTLSSYAISWVRQAPGQGPEWMGWINPNSGGTNYAQKFQGRVTMTRDTSISTAYMELSRLRPDDTAVYYCASGYCSSTSCYDYWGQGTLVTVSS VL: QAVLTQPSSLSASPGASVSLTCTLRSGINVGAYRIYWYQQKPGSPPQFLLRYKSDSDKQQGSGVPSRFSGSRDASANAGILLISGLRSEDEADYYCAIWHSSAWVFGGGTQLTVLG shows kon equal to 350000
